Measured Target: COX-2 (Ovis aries)
Construct: purchased Cayman Chemical Co
Sequence (P79208 17-603): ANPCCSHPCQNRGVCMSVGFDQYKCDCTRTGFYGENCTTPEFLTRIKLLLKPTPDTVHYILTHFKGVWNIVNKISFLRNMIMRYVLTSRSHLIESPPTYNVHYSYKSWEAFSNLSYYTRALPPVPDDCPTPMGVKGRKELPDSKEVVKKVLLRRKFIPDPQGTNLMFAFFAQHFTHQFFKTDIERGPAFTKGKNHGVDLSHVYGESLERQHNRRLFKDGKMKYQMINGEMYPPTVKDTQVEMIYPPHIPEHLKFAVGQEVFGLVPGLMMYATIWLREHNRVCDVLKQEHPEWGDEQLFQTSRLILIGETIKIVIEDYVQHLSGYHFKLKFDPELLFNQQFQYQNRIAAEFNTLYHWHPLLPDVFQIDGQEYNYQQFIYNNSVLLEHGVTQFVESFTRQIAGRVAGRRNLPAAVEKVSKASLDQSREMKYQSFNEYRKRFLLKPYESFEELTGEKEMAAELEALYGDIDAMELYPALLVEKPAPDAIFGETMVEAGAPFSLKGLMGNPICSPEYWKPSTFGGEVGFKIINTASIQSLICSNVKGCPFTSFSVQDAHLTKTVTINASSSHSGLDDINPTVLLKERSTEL
Method Summary: Inhibitory Activity on COX-2 (Assay Example 5)
Format: biochemical
Experimental Setup: Table 4; read-out: COX Inhibiting Activity IC50, COX-2
Measurement Name: IC50 (nM)

Answered cases to consult:
Smiles Notation	IC50 (nM)
Cc1cccc2nc(-c3cc(C(F)F)nn3-c3ccc(S(N)(=O)=O)cc3)sc12	240
NS(=O)(=O)c1ccc(-n2nc(C(F)F)cc2-c2nc3cccc(F)c3s2)cc1	12

[A] Cc1ccc2nc(-c3cc(C(F)(F)F)nn3-c3ccc(S(N)(=O)=O)cc3)sc2c1
[B] NS(=O)(=O)c1ccc(-n2nc(C(F)F)cc2-c2nc3ccc(Cl)cc3s2)cc1
Which value of IC50 is smaller, the one for A or the one for B ? When you have decided, please share the label of that item.
B
(B: 86 nM, A: 580 nM)
